- test system: KRAS G12V (Homo sapiens (Human), UniProt P01116+P62937, G12V)
- Sequence (P01116 other isoform, or with tags, fused parts or gaps G12V): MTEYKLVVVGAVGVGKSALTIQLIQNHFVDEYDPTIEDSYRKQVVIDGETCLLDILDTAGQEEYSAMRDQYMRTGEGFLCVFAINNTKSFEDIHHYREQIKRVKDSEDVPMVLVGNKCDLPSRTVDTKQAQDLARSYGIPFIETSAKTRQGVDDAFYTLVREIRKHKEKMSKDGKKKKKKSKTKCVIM
- Sequence (P62937 whole entry): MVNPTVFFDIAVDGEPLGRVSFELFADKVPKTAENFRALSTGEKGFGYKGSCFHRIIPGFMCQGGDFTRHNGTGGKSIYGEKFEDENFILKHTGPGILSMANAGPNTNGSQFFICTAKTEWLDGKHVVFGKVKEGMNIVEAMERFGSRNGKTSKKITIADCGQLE
- experiment summary: Ras-Raf disruption/FRET/MOA assay (BRAF RBD, Cyclophilin A)
- Format: biochemical
- measurement conditions: read-out: KRAS G12V FRET IC50
pIC50: −log10 of the molar value.
metric name: pIC50

Here is how some compounds turned out for pIC50.
* CCn1c(-c2cccnc2[C@H](C)OC)c2c3cc(ccc31)-c1csc(n1)C[C@H](NC(=O)[C@H](C(C)C)N(C)C(=O)N(C)[C@H]1CCCN(C)C1)C(=O)N1CCC[C@H](N1)C(=O)OCC(C)(C)C2 [Compound A588] | 5.00 to 6.00
* CCn1c(-c2cccnc2[C@H](C)OC)c2c3cc(ccc31)-c1cc(cc(S(C)(=O)=O)c1)C[C@H](NC(=O)[C@H](C(C)C)N(C)C(C)=O)C(=O)N1CCC[C@H](N1)C(=O)OCC(C)(C)C2 [Compound A154] | < 5.00

What value of measured pIC50 is listed for CCn1c(-c2cccnc2[C@H](C)OC)c2c3cc(ccc31)-c1cccc(c1)C[C@H](NC(=O)[C@H](C(C)C)N(C)C(=O)[C@H]1OCC[C@H]1c1ccccc1)C(=O)N1CCC[C@H](N1)C(=O)OCC(C)(C)C2 [Compound A429] ?
< 5.00

Now try CCn1c(-c2ccccc2CCOC)c2c3cc(ccc31)-c1cc(O)cc(c1)C[C@H](NC(=O)[C@H](C(C)C)N(C)C(=O)CNC(=N)N)C(=O)N1CCC[C@H](N1)C(=O)OCC(C)(C)C2 [Compound A69] .
5.00 to 6.00

Now try CCn1c(-c2cccnc2[C@H](C)OC)c2c3cc(ccc31)-c1csc(n1)C[C@H](NC(=O)[C@H](C(C)C)N(C)C(=O)N1CCC1C(=O)O)C(=O)N1CCC[C@H](N1)C(=O)OCC(C)(C)C2 (some centres unmarked) [Compound A271] .
5.00 to 6.00

---

// reported IC50 per item
- test system: NRAS G12C (Homo sapiens (Human), UniProt P01111+P62937, G12C)
- Sequence (P01111 whole entry G12C, one chain of several): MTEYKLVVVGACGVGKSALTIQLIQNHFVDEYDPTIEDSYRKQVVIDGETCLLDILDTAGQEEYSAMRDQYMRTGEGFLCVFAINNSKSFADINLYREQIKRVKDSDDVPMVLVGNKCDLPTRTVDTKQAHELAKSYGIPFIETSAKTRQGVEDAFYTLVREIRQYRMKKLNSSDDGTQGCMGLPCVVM
- experiment summary: Ras-Raf disruption/FRET/MOA assay (BRAF RBD, Cyclophilin A)
- Format: biochemical
- measurement conditions: read-out: NRAS G12C FRET data IC50

- CCn1c(-c2cnccc2COC)c2c3cc(ccc31)-c1cc(O)cc(c1)C[C@H](NC(=O)[C@H](C(C)C)N(C)C(=O)[C@H]1CCN(C(=O)CO)C1)C(=O)N1CCC[C@H](N1)C(=O)OCC(C)(C)C2 [Compound A20]: 100 to 1000 nM

What value of measured IC50 is listed for CCn1c(-c2cccnc2[C@H](C)OC)c2c3cc(ccc31)-c1cc(O)cc(c1)C[C@H](NC(=O)[C@H](C(C)C)N(C)C(=O)C1(F)CC1)C(=O)N1CCC[C@H](N1)C(=O)OCC(C)(C)C2 [Compound A165] ?
10 to 100 nM

Now try CCn1c(-c2cccnc2[C@H](C)OC)c2c3cc(ccc31)-c1csc(n1)C[C@H](NC(=O)N1CCOCC1)C(=O)N1CCC[C@H](N1)C(=O)OCC(C)(C)C2 [Compound A270] .
100 to 1000 nM

Now try CCn1c(-c2cccnc2[C@H](C)OC)c2c3cc(ccc31)-c1csc(n1)C[C@H](NC(=O)[C@H](C(C)C)N1CCCN(C)C1=O)C(=O)N1CCC[C@H](N1)C(=O)OCC(C)(C)C2 [Compound A317] .
1000 to 10000 nM

Now try CCn1c(-c2cccnc2[C@H](C)OC)c2c3cc(ccc31)-c1cc(O)cc(c1)C[C@H](NC(=O)[C@H](C(C)C)N(C)C(=O)C13CCC(CO1)C3)C(=O)N1CCC[C@H](N1)C(=O)OCC(C)(C)C2 [Compound A410] .
100 to 1000 nM

Values from patent US20250195521A1
